- target entity: 12-LOX mutant A417I/V418M/S594T (Homo sapiens, UniProt P18054, A417I/S594T/V418M)
- Construct: 6xHis (N); pFastBac1 shuttle vector
- Sequence (P18054 whole entry A417I/V418M/S594T): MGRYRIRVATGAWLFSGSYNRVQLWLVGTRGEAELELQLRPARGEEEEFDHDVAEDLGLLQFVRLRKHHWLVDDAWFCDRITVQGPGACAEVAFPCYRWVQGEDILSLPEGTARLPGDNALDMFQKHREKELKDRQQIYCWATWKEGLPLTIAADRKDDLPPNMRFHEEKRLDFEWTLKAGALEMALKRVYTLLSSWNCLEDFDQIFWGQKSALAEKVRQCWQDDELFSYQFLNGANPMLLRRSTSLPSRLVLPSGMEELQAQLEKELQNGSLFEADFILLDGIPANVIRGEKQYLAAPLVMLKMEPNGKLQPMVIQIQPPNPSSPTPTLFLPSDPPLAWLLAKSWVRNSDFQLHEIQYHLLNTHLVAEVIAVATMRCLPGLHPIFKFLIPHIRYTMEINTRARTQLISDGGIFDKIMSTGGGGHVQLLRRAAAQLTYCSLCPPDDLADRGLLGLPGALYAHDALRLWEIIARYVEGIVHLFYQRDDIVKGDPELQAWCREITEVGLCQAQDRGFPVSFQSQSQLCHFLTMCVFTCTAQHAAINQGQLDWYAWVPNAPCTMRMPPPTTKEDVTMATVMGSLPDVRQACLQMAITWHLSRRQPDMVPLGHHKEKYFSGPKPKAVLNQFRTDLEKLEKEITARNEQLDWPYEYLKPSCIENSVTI
- protocol: UV-Vis-based IC50 assay, A417I/V418M/S594T mutant
- Text: Based on the ML355 binding mode predicted by the modeling, all residues within 5 Å of any atom of ML355 were selected for experimental mutagenesis. […] The wild type 12-LOX (wt-12-LOX) enzyme and its mutants were expressed as fusion proteins, with an N-terminal 6×His tag, and were affinity purified by nickel-iminodiacetic acid agarose using FPLC (Biorad). […]
pIC50: −log10 of the molar value.
observed property: pIC50

Tell me the measured pIC50 of COc1cccc(CNc2ccc(S(=O)(=O)Nc3nc4c(ccc5ccccc54)s3)cc2)c1O [Compound LOX-12-001] , please.
< 4.70
